Each recorded value in this set is attributed to patent US20230056252A1.

# subject-of-test: T1, biotinylated CD3 epsilon:delta heterodimer protein (Amsbio AMS.CDD-H52WO) (Homo sapiens (Human), UniProt P07766 23-126; P04234 22-105)
# T1 construct: also called CD3 heterodimer
# experiment: BLI (Octet), CD3 on SA sensor, Fab analyte;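 further: fabs dipped at several concentrations (0–300 nM) onto CD3-loaded streptavidin biosensors, 100 s association then 300 s dissociation in buffer, pH 7.4, sensors blocked with biocytin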
attribute-measured: Kd
Answer format reminder: number followed by unit.

Solved entries:
huSP34.11.10 Fab-HF (Fab, V domains shown, also called HC11+LC10) VH: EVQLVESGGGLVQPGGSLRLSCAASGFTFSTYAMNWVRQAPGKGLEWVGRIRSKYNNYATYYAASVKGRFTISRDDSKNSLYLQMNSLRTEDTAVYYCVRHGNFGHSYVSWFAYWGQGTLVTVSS VL: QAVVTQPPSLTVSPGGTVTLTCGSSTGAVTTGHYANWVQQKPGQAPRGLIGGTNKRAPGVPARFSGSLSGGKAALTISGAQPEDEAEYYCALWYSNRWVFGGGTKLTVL; 2.8 nM
huSP34.12.8 Fab-HF (Fab, V domains shown, also called HC12+LC8) VH: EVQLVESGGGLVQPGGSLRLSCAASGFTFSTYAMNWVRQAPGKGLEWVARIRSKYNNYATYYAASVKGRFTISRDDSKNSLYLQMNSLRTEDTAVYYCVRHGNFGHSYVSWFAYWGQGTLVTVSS VL: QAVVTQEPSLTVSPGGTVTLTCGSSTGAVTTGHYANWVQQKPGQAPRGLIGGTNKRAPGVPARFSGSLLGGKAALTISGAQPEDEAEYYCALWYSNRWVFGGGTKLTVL; 3.4 nM
huSP34.13.7 Fab-HF (Fab, V domains shown, also called HC13+LC7) VH: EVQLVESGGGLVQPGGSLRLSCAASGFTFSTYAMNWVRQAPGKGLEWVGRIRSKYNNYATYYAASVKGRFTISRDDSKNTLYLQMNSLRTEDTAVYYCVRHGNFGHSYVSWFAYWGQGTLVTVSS VL: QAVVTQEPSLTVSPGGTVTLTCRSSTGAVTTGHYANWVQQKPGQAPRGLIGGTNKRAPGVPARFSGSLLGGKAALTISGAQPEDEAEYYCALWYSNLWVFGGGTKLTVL; 2.8 nM

Ask | Need Kd, item mSP34 Fab-HF v2 (Fab, V domains shown) VH: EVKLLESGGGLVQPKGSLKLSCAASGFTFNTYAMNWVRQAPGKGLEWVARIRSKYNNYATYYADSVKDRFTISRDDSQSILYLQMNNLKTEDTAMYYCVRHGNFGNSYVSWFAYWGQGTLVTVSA VL: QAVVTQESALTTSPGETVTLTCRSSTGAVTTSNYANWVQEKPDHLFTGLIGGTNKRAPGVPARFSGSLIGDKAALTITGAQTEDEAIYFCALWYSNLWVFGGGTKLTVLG
Reply | 5.2 nM

Ask | Need Kd, item huSP34.12.10 Fab-HF (Fab, V domains shown, also called HC12+LC10) VH: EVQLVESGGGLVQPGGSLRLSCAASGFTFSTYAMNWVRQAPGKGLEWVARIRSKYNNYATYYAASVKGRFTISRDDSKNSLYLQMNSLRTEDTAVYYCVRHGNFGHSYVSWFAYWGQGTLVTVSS VL: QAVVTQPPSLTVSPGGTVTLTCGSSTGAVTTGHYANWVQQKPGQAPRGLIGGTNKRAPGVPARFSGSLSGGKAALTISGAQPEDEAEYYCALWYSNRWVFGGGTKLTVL
Reply | 4.2 nM
